# Protocol Details: Base deblocking of substituted urethanes (U-PCA) by various amines
# Assay type: physicochemical
# Experimental Setup: ethanolamine 50 eq., dichloromethane, room temperature
Reported Metric: Time for Complete Deblocking (min)

> print(dat)
                                   molecule               reported.metric  readout.units  number
1  CC(C)(C)c1ccc2c(c1)C(COC(=O)Nc1ccc(Cl)cc1)c1cc(C(C)(C)C)ccc1-2 [DT-Fmoc-PCA]  Time for Complete Deblocking            min     240
2  C[Si](C)(C)C1(COC(=O)Nc2ccc(Cl)cc2)c2ccccc2-c2ccccc21 [TMS-Fmoc-PCA]  Time for Complete Deblocking            min     150
3  O=C(Nc1ccc(Cl)cc1)OCC1c2ccccc2-c2ccccc21 [Fmoc-PCA, 9-fluorenylmethyl p-chlorocarbanilate, reference compound]  Time for Complete Deblocking            min      45
4  C[Si](C)(C)c1ccc2c(c1)C(COC(=O)Nc1ccc(Cl)cc1)c1cc([Si](C)(C)C)ccc1-2 [BTS-Fmoc-PCA]  Time for Complete Deblocking            min      90

---

# Protocol Details: Base deblocking of substituted urethanes (U-PCA) by various amines
# Format: physicochemical
# Experimental Setup: piperidine 50 eq., dichloromethane, room temperature
# Source text: 1. General Procedure for Studying the Base Deblocking of the Urethanes Fmoc-PCA, BTS-Fmoc-PCA, DT-Fmoc-PCA, and TMS-Fmoc-PCA: A mixture of urethane (0.05 mmol) in a solution prepared from an equal volume of base (2.5 mmol, 50 eq.) and dichloromethane was stirred at room temperature. The course of the reaction was monitored by TLC with an eluant consisting of Skelly B--ether (3:1).
Here the recorded Time for Complete Scavenging of Dibenzofulvene Analogs is given for each entry.
Reported Metric: Time for Complete Scavenging of Dibenzofulvene Analogs (min)

> print(dat)
                                   molecule  number
1  C[Si](C)(C)C1(COC(=O)Nc2ccc(Cl)cc2)c2ccccc2-c2ccccc21     195
2  CC(C)(C)c1ccc2c(c1)C(COC(=O)Nc1ccc(Cl)cc1)c1cc(C(C)(C)C)ccc1-2      84
3  O=C(Nc1ccc(Cl)cc1)OCC1c2ccccc2-c2ccccc21 [Fmoc-PCA, 9-fluorenylmethyl p-chlorocarbanilate, reference compound]      68
4  C[Si](C)(C)c1ccc2c(c1)C(COC(=O)Nc1ccc(Cl)cc1)c1cc([Si](C)(C)C)ccc1-2      40

---

# Protocol Details: Base deblocking of R-Fmoc-aniline by various amines
# Assay type: physicochemical
# Experimental Setup: piperidine 100 eq., room temperature
Here the recorded Time for Complete Scavenging of Dibenzofulvene is given for each entry.
Reported Metric: Time for Complete Scavenging of Dibenzofulvene

> print(dat)
                            chemical.string    result
1  CC(C)(C)c1ccc2c(c1)C(COC(=O)Nc1ccccc1)([Si](C)(C)C)c1cc(C(C)(C)C)ccc1-2  1080 min
2  C[Si](C)(C)C1(COC(=O)Nc2ccccc2)c2ccccc2-c2ccccc21   300 min
3  C[Si](c1ccccc1)(c1ccccc1)C1(COC(=O)Nc2ccccc2)c2ccccc2-c2ccccc21   150 min
4  C[Si](C)(c1ccccc1)C1(COC(=O)Nc2ccccc2)c2ccccc2-c2ccccc21   220 min

---

# Protocol Details: Base deblocking of substituted urethanes (U-PCA) by various amines
# Format: physicochemical
# Experimental Setup: piperidine 50 eq., dichloromethane, room temperature; significant aminodibenzofulvene type adduct formed
Here the recorded Time for Complete Deblocking is given for each entry.
Reported Metric: Time for Complete Deblocking

> print(dat)
                                   molecule               reported.metric   result
1  O=C(Nc1ccc(Cl)cc1)OCC1c2ccccc2-c2ccccc21 [Fmoc-PCA, 9-fluorenylmethyl p-chlorocarbanilate, reference compound]  Time for Complete Deblocking  < 3 min
2  C[Si](C)(C)c1ccc2c(c1)C(COC(=O)Nc1ccc(Cl)cc1)c1cc([Si](C)(C)C)ccc1-2  Time for Complete Deblocking  < 3 min
3  CC(C)(C)c1ccc2c(c1)C(COC(=O)Nc1ccc(Cl)cc1)c1cc(C(C)(C)C)ccc1-2  Time for Complete Deblocking   12 min
4  C[Si](C)(C)C1(COC(=O)Nc2ccc(Cl)cc2)c2ccccc2-c2ccccc21  Time for Complete Deblocking  129 min
